# testedTarget: Mouse VCP (Mus musculus (Mouse))
# Sequence (Q01853 whole entry): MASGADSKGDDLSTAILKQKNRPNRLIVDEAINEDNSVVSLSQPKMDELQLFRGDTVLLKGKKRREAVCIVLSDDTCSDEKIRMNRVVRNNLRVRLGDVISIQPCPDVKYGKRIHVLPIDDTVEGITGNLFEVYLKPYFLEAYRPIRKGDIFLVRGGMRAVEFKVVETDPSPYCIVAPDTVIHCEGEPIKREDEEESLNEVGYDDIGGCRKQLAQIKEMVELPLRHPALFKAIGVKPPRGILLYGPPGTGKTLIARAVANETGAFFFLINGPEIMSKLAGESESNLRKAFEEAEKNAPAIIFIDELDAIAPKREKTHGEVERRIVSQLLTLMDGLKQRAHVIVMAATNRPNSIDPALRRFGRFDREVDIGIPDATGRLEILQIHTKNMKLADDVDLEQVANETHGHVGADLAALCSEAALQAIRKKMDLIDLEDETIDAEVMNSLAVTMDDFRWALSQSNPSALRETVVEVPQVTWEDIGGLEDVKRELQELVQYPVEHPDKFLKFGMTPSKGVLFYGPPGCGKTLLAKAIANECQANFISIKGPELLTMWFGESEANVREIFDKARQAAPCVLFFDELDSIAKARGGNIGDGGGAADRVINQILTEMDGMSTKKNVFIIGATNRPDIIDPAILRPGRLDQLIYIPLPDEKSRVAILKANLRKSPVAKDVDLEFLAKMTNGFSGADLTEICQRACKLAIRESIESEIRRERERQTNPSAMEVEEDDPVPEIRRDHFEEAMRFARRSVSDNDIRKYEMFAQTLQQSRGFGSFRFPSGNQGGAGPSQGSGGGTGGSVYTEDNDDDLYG
Where a name gives a salt, the structure may show the parent alone.
assayEndpoint: IC50 (nM)
Answer with a number only, understood to be in nM.

Case Nc1c(/N=N/c2ccc(-c3ccccc3OCCCC(=O)O)nc2)cc(S(=O)(=O)O)c2ccccc12 [Example 43, disodium salt] , Mouse VCP (Mus musculus (Mouse)), IC50 recorded as 378
